- TARGET OR SYSTEM: CD137 (UniProt Q07011 24-255, limits assumed)
- Sequence (Q07011 24-255 limits assumed): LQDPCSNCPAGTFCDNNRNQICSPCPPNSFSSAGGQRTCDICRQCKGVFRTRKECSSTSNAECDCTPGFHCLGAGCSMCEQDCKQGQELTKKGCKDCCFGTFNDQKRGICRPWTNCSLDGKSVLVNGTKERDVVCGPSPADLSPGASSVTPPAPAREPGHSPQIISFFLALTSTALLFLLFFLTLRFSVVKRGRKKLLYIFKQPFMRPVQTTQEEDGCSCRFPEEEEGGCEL
- PROCEDURE TEXT: cell-based or functional assay
*1 amine or outer side, *2 acyl side, *3 side chain or, on linkers, in order; H or OH if unused. Bridges are numbered along the chain shown (N, C = ends). Roman numbers before positions name the chains, in order. Where no end group is shown, it is not given here. [ ]: non-standard residue; d: D form. The star is where a group is joined. TATA = O=C(CC[*:1])N1CN(C(=O)CC[*:2])CN(C(=O)CC[*:3])C1; Hyp = O=C(O)[C@@H]1C[C@@H](O)CN1; hArg = N=C(N)NCCCC[C@H](N)C(=O)O; tBuAla = CC(C)(C)C[C@H](N)C(=O)O; Nle = CCCC[C@H](N)C(=O)O; Pent4ynoyl = C#CCCC(=O)*
READOUT NAME: Fold improvement in Emax over BCY9173 on same plate (fold)
Give just the number in fold; leave the unit off.

Guide cases for Fold improvement in Emax over BCY9173 on same plate, answers given:
Query block: Which Fold improvement in Emax over BCY9173 on same plate value is on record for BCY12234 (Ac-C[tBuAla]PE[D-Lys]PYCFADPY[Nle]CA; Cys residues bonded to TATA scaffold; [Ac]A[HArg]DC[HyP]LVNPLCLHP[dD]W[HArg]CK(PYA); Cys residues bonded to TATA scaffold) peptide 1: AXDCXLVNPLCLHPDWXCK peptide 2: CXPEKPYCFADPYXCA ?
Result block: 0.8

Query block: What does the data say about its Fold improvement in Emax over BCY9173 on same plate? Entry: BCY12237 (Ac-C[tBuAla]PE[D-Lys]PYCFADPY[Nle]CA; Cys residues bonded to TATA scaffold; [Ac]A[HArg]DC[HyP]LVNPLCK(PYA)HP[dD]W[HArg]C; Cys residues bonded to TATA scaffold) peptide 1: AXDCXLVNPLCKHPDWXC peptide 2: CXPEKPYCFADPYXCA
Result block: 0.8

Query block: If you can, please state the reported Fold improvement in Emax over BCY9173 on same plate value of BCY12233 (linker I:4-I:11-I:18, II:1-II:8-II:15 via TATA; linker II:N-II:5 via Peg5; also: two bicycles joined by Peg5 linker) peptide 1: Pent4ynoyl-A[hArg]DC[Hyp]LVNPLCLHP[dD]W[hArg]C peptide 2: Ac-C[tBuAla]PE[dK]PYCFADPY[Nle]CA .
Result block: 0.9

---
Query block: Quick check: Fold improvement in Emax over BCY9173 on same plate of BCY12236 (Ac-C[tBuAla]PE[D-Lys]PYCFADPY[Nle]CA; Cys residues bonded to TATA scaffold; [Ac]A[HArg]DC[HyP]K(PYA)VNPLCLHP[dD]W[HArg]C; Cys residues bonded to TATA scaffold) peptide 1: AXDCXKVNPLCLHPDWXC peptide 2: CXPEKPYCFADPYXCA ?
Result block: 0.8

Query block: For the binder shown here, BCY12235 (Ac-C[tBuAla]PE[D-Lys]PYCFADPY[Nle]CA; Cys residues bonded to TATA scaffold; [Ac]A[HArg]DC[HyP]LVNPLCLK(PYA)P[dD]W[HArg]C; Cys residues bonded to TATA scaffold) peptide 1: AXDCXLVNPLCLKPDWXC peptide 2: CXPEKPYCFADPYXCA , give the reported Fold improvement in Emax over BCY9173 on same plate.
Result block: 0.8
